Origin of the recorded values: patent US7803940B2

TARGET OR TEST SYSTEM: PPARγ (Homo sapiens)
Construct: expressed in transfected cells; host or cells: CHO-K1
Sequence (P37231 1-477 isoform P37231-2): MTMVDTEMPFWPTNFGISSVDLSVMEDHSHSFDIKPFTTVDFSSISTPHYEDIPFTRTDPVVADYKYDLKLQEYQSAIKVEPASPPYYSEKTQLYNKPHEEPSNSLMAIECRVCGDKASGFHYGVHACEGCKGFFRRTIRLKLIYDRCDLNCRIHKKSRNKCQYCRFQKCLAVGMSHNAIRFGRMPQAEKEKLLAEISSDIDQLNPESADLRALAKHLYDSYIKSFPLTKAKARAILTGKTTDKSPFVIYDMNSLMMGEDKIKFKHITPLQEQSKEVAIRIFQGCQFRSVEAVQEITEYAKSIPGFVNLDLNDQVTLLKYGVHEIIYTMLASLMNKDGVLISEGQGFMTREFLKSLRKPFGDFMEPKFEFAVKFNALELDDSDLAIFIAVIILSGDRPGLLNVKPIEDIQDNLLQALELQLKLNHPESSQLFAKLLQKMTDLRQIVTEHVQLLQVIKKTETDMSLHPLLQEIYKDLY
Sequence (P19793 1-462 partner): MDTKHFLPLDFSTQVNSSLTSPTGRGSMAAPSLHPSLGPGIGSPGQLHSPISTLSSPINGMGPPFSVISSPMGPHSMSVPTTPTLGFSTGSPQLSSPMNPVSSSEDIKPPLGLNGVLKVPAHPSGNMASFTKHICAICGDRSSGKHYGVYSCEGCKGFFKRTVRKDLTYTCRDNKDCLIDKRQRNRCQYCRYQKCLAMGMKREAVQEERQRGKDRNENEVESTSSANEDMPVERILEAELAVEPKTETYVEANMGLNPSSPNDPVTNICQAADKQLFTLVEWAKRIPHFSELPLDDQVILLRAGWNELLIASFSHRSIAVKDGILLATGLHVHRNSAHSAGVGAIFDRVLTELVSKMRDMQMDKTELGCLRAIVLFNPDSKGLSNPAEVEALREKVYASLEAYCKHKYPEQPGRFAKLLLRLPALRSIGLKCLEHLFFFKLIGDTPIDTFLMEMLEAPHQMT
PROTOCOL SUMMARY: Evaluation of PPARγ activating action (luciferase reporter, PPARγ:RXRα:4ERPP/CHO-K1 cells)
Type: cell-based
CONDITION: test compound 10^−6 M; luciferase activity of control compound X (1 μM) = 100%, non-administration group = 0%
Structures can show the parent of a compound that is named as a salt.
QUANTITY: PPARγ activating action (activation % (10^−6 M)) (%)
Number in %, nothing else.

Illustrative cases are given below, each with its answer.
- MOLECULE: "CCCc1nc(C)c(Oc2ccc(OC)cc2)c(=O)n1Cc1ccc(-c2ccccc2-c2noc(O)n2)cc1 [Example 476, potassium salt]"
  RECORDED NUMBER: 18.5
- MOLECULE: "CCCc1nc(CC)c(C(O)C(C)C)c(=O)n1Cc1ccc(-c2ccccc2-c2noc(O)n2)cc1 (stereo not drawn) [Example 473, potassium salt]"
  RECORDED NUMBER: 15.7

Identify measured PPARγ activating action (activation % (10^−6 M)) associated with CCCc1nc(CC)n(-c2ccc3c(c2)CCO3)c(=O)c1Cc1ccc(-c2ccccc2-c2noc([O-])n2)cc1.[K+] [Example 311]
38.1
